This collection of values is drawn from patent US20210363269A1.

# maps each entry to its koff
- experimental_system: T1, BALBc mouse SIRP-α (mouse (BALB/c strain))
- T1 chain: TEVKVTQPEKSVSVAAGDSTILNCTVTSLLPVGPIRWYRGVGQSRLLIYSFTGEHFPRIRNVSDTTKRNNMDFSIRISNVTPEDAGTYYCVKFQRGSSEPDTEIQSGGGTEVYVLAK
- assay_summary: SPR
measured_attribute: koff (s⁻¹)

>>> value("antibody 25 (antibody, V domains shown, also called AB25; S25) VH: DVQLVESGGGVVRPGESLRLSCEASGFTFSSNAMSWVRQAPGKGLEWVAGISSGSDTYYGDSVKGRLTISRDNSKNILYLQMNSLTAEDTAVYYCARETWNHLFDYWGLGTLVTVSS VL: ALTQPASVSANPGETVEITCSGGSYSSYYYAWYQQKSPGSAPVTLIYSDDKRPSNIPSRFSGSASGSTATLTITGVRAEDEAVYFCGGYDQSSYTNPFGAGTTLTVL")
0.00178
>>> value("Hum3/AB21_HC_wt (antibody, V domains shown) VH: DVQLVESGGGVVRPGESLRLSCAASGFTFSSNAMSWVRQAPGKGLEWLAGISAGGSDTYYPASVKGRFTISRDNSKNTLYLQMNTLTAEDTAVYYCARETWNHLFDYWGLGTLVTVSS VL: SYELTQPPSVSVSPGQTARITCSGGDYYSTYYAWYQQKPGQAPVTVIHSDDKRPSDIPERFSGSSSGTTVTLTISGVQAEDEADYYCGGYDGRTYINTFGGGTKLTVL")
0.00231
